Value source: patent US5283243A

Would you kindly list Minimum toxic dose for each of these molecules?
Test system: mice
experimental details: Determination of minimum toxic dose
Format: in vivo
condition details: mouse, per os; lowest dose producing death or severe toxic symptoms, maximum dose 300 mg/kg, 24 hours
Give bare numbers, in mg/kg.

As a guide, the following entries are already answered.
>>> measurement("N#CC1(c2ccccc2)CCN(CCCCC2Sc3ccccc3NC2=O)CC1 (stereo not drawn)")
300
>>> measurement("S=C1Nc2ccccc2OC1CCCN1CCC(Cc2ccccc2)CC1 (stereo not drawn)")
300
>>> measurement("O=C(c1ccc(F)cc1)C1CCN(C2Sc3ccccc3NC2=O)CC1 (stereo not drawn)")
300
>>> measurement("O=C1Nc2ccccc2SC1CCCN1CCC(Cc2ccccc2)CC1 (stereo not drawn)")
100

I'd like to know its Minimum toxic dose. The molecule in question is O=C1Nc2ccccc2SC1CCCCN1CC=C(c2ccccc2)CC1 (stereo not drawn) 300
